# assay.system: T1, His-tagged human HtrA1 protease domain (human, UniProt Q92743 161-367)
# T1 construct: His-tagged protease domain; also called huHtrA1-PD-His; huHtrA1-PD
# T1 sequence (Q92743 other isoform, or with tags, fused parts or gaps limits assumed): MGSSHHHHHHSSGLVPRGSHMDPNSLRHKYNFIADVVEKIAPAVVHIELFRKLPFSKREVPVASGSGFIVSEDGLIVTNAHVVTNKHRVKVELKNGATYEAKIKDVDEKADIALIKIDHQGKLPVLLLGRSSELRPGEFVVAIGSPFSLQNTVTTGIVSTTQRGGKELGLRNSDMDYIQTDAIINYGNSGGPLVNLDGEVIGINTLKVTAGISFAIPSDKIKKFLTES
# assay.text: SPR (BIACORE T200), huHtrA1-PD-His captured by anti-His, Fab injected
measured.parameter: koff (s⁻¹)
Your answer should be a plain number; it is taken to be in s⁻¹.

Look up and state reported koff for combination mutant LC7.HC1 Fab (Fab, V domains shown, Fab) VH: EVQLVQSGAEVKKPGASVKVSCKASGYTFKDSEMHWVRQAPGQGLEWIGGVDPETDGAAYNQKFKGRATITRDTSTSTAYLELSSLRSEDTAVYYCTRGYDYDYALDYWGQGTLVTVSS VL: DIQMTQSPSSLSASVGDRVTITCRASSSVNFIHWYQQKPGKAPKPLISATSNLASGVPSRFSGSGSGTDFTLTISSLQPEDFATYYCQQWYSNPWTFGQGTKVEIK 0.000267

Look up and state reported koff for combination mutant LC4.HC1 Fab (Fab, V domains shown, Fab) VH: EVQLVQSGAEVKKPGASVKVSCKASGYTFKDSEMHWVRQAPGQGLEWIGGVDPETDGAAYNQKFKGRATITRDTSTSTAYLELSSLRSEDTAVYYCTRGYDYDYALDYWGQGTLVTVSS VL: DIQMTQSPSSLSASVGDRVTITCRASSSVNFIHWYQQKPGKAPKPLISATSHLASGVPSRFSGSGSGTDFTLTISSLQPEDFATYYCQQWSSNPWTFGQGTKVEIK 0.000228
